assay.comment: Caco-2 permeability assay
Format: in vitro ADME
protocol.conditions: human, Caco-2, pH 7.4
Exercise: state measured efflux ratio at 2 h, 50 μmol/L for each of the molecules provided.
Numbers only.

| molecule | efflux ratio at 2 h, 50 μmol/L |
| --- | --- |
| Oc1cccc2cccnc12 [Compound 1, 8-hydroxyquinoline, reference compound] | 0.8 |

// batch mode: one efflux ratio at 2 h, 50 μmol/L value per listed entry
1. COc1ccc(Cl)c2cccnc12
2. COc1cccc2cccnc12

1. 0.7
2. 0.6

Parameters: items (list). Returns: efflux ratio at 2 h, 50 μmol/L for each item.
1. CCOc1cccc2cccnc12
2. Oc1c(I)cc(Cl)c2cccnc12 [Compound 4, 5-chloro-7-iodo-8-hydroxyquinoline, reference compound]
3. COc1c(I)cc(Cl)c2cccnc12

1. 0.5
2. 0.7
3. 0.6

* * *

assay.comment: Caco-2 permeability assay
Format: in vitro ADME
protocol.conditions: human, Caco-2, pH 7.4, CaCo2 Papp A/B, apical to basolateral; 50 μmol/L; 2 hrs at 37°C
Threshold check on Papp at 2 h, 50 μmol/L: at or above 50 ×10⁻⁶ cm/s gives class 1, strictly below gives class 0.

| compound | category |
| --- | --- |
| Oc1cccc2cccnc12 [Compound 1, 8-hydroxyquinoline, reference compound] | class 0 |

Does COc1ccc(Cl)c2cccnc12 have a reported Papp at 2 h, 50 μmol/L of at least 50 ×10⁻⁶ cm/s?
class 1

Kindly determine if Papp at 2 h, 50 μmol/L recorded for COc1cccc2cccnc12 is above or exactly 50 ×10⁻⁶ cm/s.
class 0

Could you tell me if the measured Papp at 2 h, 50 μmol/L of CCOc1cccc2cccnc12 reaches 50 ×10⁻⁶ cm/s or more?
class 0

Entry Oc1c(I)cc(Cl)c2cccnc12 [Compound 4, 5-chloro-7-iodo-8-hydroxyquinoline, reference compound] : is its Papp at 2 h, 50 μmol/L no less than 50 ×10⁻⁶ cm/s?
class 0

Does Papp at 2 h, 50 μmol/L meet or surpass 50 ×10⁻⁶ cm/s for COc1c(I)cc(Cl)c2cccnc12 ?
class 0

* * *

Test system: MCF10dcis.com (DCIS) cells
assay.comment: Copper accumulation in breast cancer cells measured by ICP-OES
Format: cell-based, human
protocol.conditions: compound-copper mixture
parameter: increase of intracellular copper level

Field: increase of intracellular copper level (MCF10dcis.com (DCIS) cells). Entry: Oc1cccc2cccnc12 [Compound 1, 8-hydroxyquinoline, reference compound]
135 fold

* * *

Answer each item with its documented Papp at 2 h, 50 μmol/L.
assay.comment: Caco-2 permeability assay
Format: in vitro ADME
protocol.conditions: human, Caco-2, pH 7.4, Caco2 Papp B/A, basolateral to apical; 50 μmol/L; 2 hrs at 37°C
Answers are plain numbers, in ×10⁻⁶ cm/s.

Previously resolved entries follow.
| compound | parameter | numeric.value |
| --- | --- | --- |
| COc1cccc2cccnc12 [Compound 2, 8-methoxyquinoline] | Papp at 2 h, 50 μmol/L | 29.9 |
| Oc1c(I)cc(Cl)c2cccnc12 [Compound 4, 5-chloro-7-iodo-8-hydroxyquinoline, reference compound] | Papp at 2 h, 50 μmol/L | 31.5 |
| COc1c(I)cc(Cl)c2cccnc12 [Compound 5, 5-chloro-7-iodo-8-methoxyquinoline] | Papp at 2 h, 50 μmol/L | 12.5 |
| Oc1cccc2cccnc12 [Compound 1, 8-hydroxyquinoline, reference compound] | Papp at 2 h, 50 μmol/L | 29 |
| CCOc1cccc2cccnc12 [Compound 3, 8-ethoxyquinoline] | Papp at 2 h, 50 μmol/L | 9.4 |

// Papp at 2 h, 50 μmol/L lookup, key: COc1ccc(Cl)c2cccnc12 [Compound 6, 5-chloro-8-methoxyquinoline]
41.3

Where do the numbers come from? From paper PMC2814311.
